The values you see were collected from patent US7678913B2.

// values below are reported pIC50
molecular target: human plasma protein factor Xa (Homo sapiens); construct: measure proteolytic activity of the enzyme (factor Xa); experiment: Factor Xa IC50 determination (cleavage of chromogenic substrate S-2765); conditions: fXa 1 nM, S-2765 100 μM, Tris buffered saline pH 7.4, room temperature
Sequence (P00742 235-488 limits assumed): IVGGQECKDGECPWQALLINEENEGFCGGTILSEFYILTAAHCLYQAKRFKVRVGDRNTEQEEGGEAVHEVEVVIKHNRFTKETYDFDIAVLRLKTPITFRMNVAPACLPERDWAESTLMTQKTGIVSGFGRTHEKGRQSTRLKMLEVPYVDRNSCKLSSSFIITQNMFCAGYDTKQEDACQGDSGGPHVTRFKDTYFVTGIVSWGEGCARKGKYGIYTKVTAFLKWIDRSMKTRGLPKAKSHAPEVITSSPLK
Sequence (P00742 41-179 partner limits assumed): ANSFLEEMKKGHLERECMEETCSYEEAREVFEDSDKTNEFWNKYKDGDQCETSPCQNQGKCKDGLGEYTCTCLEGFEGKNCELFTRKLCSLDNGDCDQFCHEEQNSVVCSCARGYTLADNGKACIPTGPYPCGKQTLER
pIC50: −log10 of the molar value.

> print(dat)
                                   molecule  reading
1  CCN(C)C(=N)c1ccc(NC(=O)C(NC(=O)Nc2ccc(Cl)cc2)c2cccs2)cc1 (stereo not shown) [Example 20]   ≥ 7.00

Notebook: pull reported pIC50 for human plasma protein factor Xa (Homo sapiens), entry Cc1ccccc1C(NC(=O)Nc1ccc(Cl)cc1)C(=O)Nc1ccc(C2=NCCN2C)cc1 (stereo not shown) [Example 84] ≥ 7.00

Notebook: pull reported pIC50 for human plasma protein factor Xa (Homo sapiens), entry CN1CCN=C1c1ccc(NC(=O)C(NC(=O)Nc2ccc(F)cc2)c2cccs2)cc1 (stereo not shown) [Example 17] 6.30 to 7.00

Notebook: pull reported pIC50 for human plasma protein factor Xa (Homo sapiens), entry N=C(c1ccc(NC(=O)C(NC(=O)Nc2ccc(Cl)cc2)c2cccs2)cc1)N1CCCCC1 (stereo not shown) [Example 22] ≥ 7.00
